Entry source: PubChem BioAssay

assay: mitochondrial membrane potential change in A549 cells, profiling panel, cell-based, JC-1 fluorescence, basal, 24 h, 100 nL (AID 1138); conditions: higher = more signal;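 also: A549 lung adenocarcinoma cells under basal conditions with no added stimulus; test concentration not given here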
Rule: z-score of 0.9 or more gives 1; anything lower gives -1.

Compound: COc1ccc([Si](C)(C)[C@@H]2[C@@H](CC(=O)N3CCC[C@H]3CO)O[C@]3(C(=O)N(Cc4ccc(I)cc4)c4ccccc43)[C@H]2C)cc1
Group: 1
--
Compound: CC(CO)N1C(=O)[C@@H]2C3C(=O)OCCC/C=C\[C@H]3OC23C=CCN(Cc2ccccc2)C(=O)[C@@H]13 (stereo partly drawn)
Group: 1
--
Compound: C=CC[C@]1(C(=O)N2CCCCC2)COC(c2ccc(OCCCO)cc2)=N1
Group: 1
--
Compound: C=C(COC)/C(=C/C[C@H](OC(C)=O)c1cccc(OCCO)c1)c1cc(C(=O)OC)ccc1OC
Group: -1
--
Compound: COc1ccc([Si](C)(C)[C@@H]2[C@@H](CCn3cc([C@H](O)c4ccccc4)nn3)O[C@]3(C(=O)N(C)c4c(Br)cc(C)cc43)[C@H]2C)cc1
Group: -1
--
Compound: C=C[C@H](OC)[C@@H](OC(=O)Nc1ccc(OC)cc1)c1ccc(OC)c(O)c1
Group: 1
--
Compound: [N-]=[N+]=NCc1ccccc1C[C@@]1(C(=O)NCc2ccccc2)N=C(c2ccc(OCCCO)cc2)O[C@@H]1c1ccccc1
Group: 1

###

target: Luciferin 4-monooxygenase (Photinus pyralis); experiment: firefly luciferase enzyme inhibitors, primary screen, biochemical, luminescence, purified enzyme, 2006 set (AID 1141); settings: SteadyGlo luminescence, 30 min, higher = more signal, called active from +8 up or from −8 down;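 also: cell-free assay with purified firefly luciferase at 100 ng per well in PBS; test concentration not given here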
# z-score listing for each entry below
Measured parameter: z-score

Compound: C=C1C=C(Br)C2(OCCCO2)[C@H]2OC12 (stereo partly specified)
Measured parameter: z-score
Reading: -0.914

Compound: C=C(C(=O)CC[C@H](OC(C)=O)c1ccc(CO)o1)C(C)C
Measured parameter: z-score
Reading: -2.12

Compound: [N-]=[N+]=NCc1ccccc1C[C@]1(C(=O)NCc2ccccc2)N=C(c2ccc(OCCCO)cc2)O[C@H]1c1ccccc1
Measured parameter: z-score
Reading: -1.19

Compound: CCN(CC)c1ccc(N2CC=CC34O[C@@H]5C=CCOC(=O)[C@@H]5[C@H]3C(=O)N(C(C)CO)[C@@H]4C2=O)cc1 (stereo partly specified)
Measured parameter: z-score
Reading: -0.822

Compound: CN1C=C(C(=O)OCCS(C)(=O)=O)C(C(=O)OCCS(C)(=O)=O)=CC(CCCO)=CC1c1cccs1 (stereo unspecified)
Measured parameter: z-score
Reading: -1.52

Compound: COc1ccc([Si](C)(C)[C@@H]2[C@@H](CC(=O)N3CCC[C@H]3CO)O[C@]3(C(=O)N(Cc4ccc(N5CCC5=O)cc4)c4ccccc43)[C@H]2C)cc1
Measured parameter: z-score
Reading: -1.45

###

assay: adipocyte viability effects, profiling panel, cell-based, 3T3-L1 adipocytes, calcein-AM fluorescence, 48 h, basal (AID 1163); details: 3T3-L1 adipocytes viability, higher = more signal; also: test concentration not given here
# z-score listing for each entry below
Measured parameter: z-score

Molecule: O=C1O[C@@H](c2ccccc2)[C@@H](c2ccccc2)N2[C@@H](c3ccc(OCCO)cc3)[C@]3(C(=O)Nc4ccc(C#CC5(O)CCCCCC5)cc43)[C@@H](C(=O)NC[C@H](O)c3ccccc3)[C@H]12
Measured parameter: z-score
Reading: 1.71
--
Molecule: CC(C)(C)OC(=O)CC[C@@]12N=C(c3ccc(OCCCO)cc3)O[C@@H]1c1ccccc1CN(Cc1ccccc1)C2=O
Measured parameter: z-score
Reading: 1.52
--
Molecule: C=C(COC)C(=O)CC[C@H](OC(=O)c1ccccc1-c1ccccc1C(=O)O)c1ccccc1OCCO
Measured parameter: z-score
Reading: 0.819

###

tested on: Inhibin beta A chain (activin A); experiment: INHBA (activin A) binders on microarrays, primary screen, biochemical, small-molecule microarray, 635 nm fluorescence scan (AID 1107); details: small-molecule microarray binding, higher = more signal;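 also: mouse activin A protein probed at 4.33 µg/mL on printed slides; score merges bound-protein fluorescence near 667 nm with spot signal-to-noise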
Rule: composite z-score of 1 or more gives Criterion met; anything lower gives Criterion not met.

Compound: C[N+](C)(C)CCCC[C@@H]1NC(=O)[C@H]2C[C@@H](C(=O)NCCCCCN)[C@@H](c3cccc(OCCO)c3)N2C1=O
Group: Criterion met

Compound: COc1ccc(C(=O)Nc2cccc(CN3C(=O)[C@@]4(O[C@@H](CCO)[C@H]([Si](C)(C)c5ccc(OC)cc5)[C@H]4C)c4ccccc43)c2)cc1
Group: Criterion met

Compound: CC(C)C(CO)N1C(=O)[C@@H]2C3C(=O)OCCC/C=C\[C@H]3OC23C=CCN(C(C)C)C(=O)[C@@H]13 (stereo partly drawn)
Group: Criterion not met

Compound: C=CCOC(=O)[C@H]1[C@@H]2C(=O)O[C@@H](c3ccccc3)[C@@H](c3ccccc3)N2[C@@H](c2ccc(OCCOC(=O)[C@H]3C[C@H]4C(=O)N5CCC[C@H]5C(=O)N4[C@H]3c3cccc(OCCO)c3)cc2)[C@]12C(=O)Nc1ccccc12
Group: Criterion not met

Compound: COc1ccc([Si](C)(C)[C@H]2[C@H](CC(=O)N(CCO)Cc3ccccc3)O[C@@]3(C(=O)N(Cc4cccc(N5C(=O)COc6ccccc65)c4)c4ccccc43)[C@@H]2C)cc1
Group: Criterion not met

Compound: CCCCC(=C=CC[C@@H](O)c1ccc(OCCO)cc1)C[C@@H](O)c1cc(Cl)cc(Cl)c1O
Group: Criterion not met

Compound: C=CCNC(=O)[C@@H]1[C@H]2C(=O)O[C@H](c3ccccc3)[C@H](c3ccccc3)N2[C@H](c2ccc(O)cc2)[C@@]12C(=O)Nc1ccc(C#Cc3ccc(OC)cc3)cc12
Group: Criterion not met

Compound: O=C(O)[C@H]1C[C@H]2C(=O)NCC(=O)N2[C@H]1c1cccc(OCCO)c1
Group: Criterion met

Compound: C=C[C@H](OC)[C@@H](OC(=O)Nc1ccc(OC)cc1)c1ccc(OC)c(O)c1
Group: Criterion not met

Compound: O=C1c2ccccc2[C@](Cc2ccccc2I)(C(=O)O)[C@H](c2ccc(CO)cc2)N1Cc1ccccc1Cl
Group: Criterion not met

Compound: CCCCC(=C=CC[C@H](O)c1cccc(OCCO)c1)CCO
Group: Criterion met

Compound: COc1ccc([Si](C)(C)[C@@H]2[C@@H](CC(=O)N3CCC[C@H]3CO)O[C@]3(C(=O)N(Cc4ccc(N5CCC5=O)cc4)c4ccccc43)[C@H]2C)cc1
Group: Criterion not met

###

# z-score listing for each entry below
assay: basal S. cerevisiae growth modulation, no modifier, primary screen, OD600, strain BY4716, 24 h, basal condition (AID 1173); conditions: OD600, 24 h, higher = more signal, called active from +8 up or from −8 down
Measured parameter: z-score

Compound: CCCNC(=O)[C@@]1(Sc2ccc(C)cc2)CC(=O)N(Cc2cc(C(F)(F)F)cc(C(F)(F)F)c2)[C@@H]1c1ccc(CO)cc1I
Reading: -5.79

Compound: COCCOC(=O)N1C(=O)[C@@]2(c3cc(C#CC4(O)CCCCCC4)ccc31)[C@H](c1ccc(O)cc1)N1[C@H](c3ccccc3)[C@H](c3ccccc3)OC(=O)[C@H]1[C@@H]2C(N)=O
Reading: -1.38

Compound: CC(C)N1CC=CC23O[C@@H]4/C=C\CCCOC(=O)C4[C@H]2C(=O)N(CCCO)[C@@H]3C1=O (some centres not stated)
Reading: 0.11

Compound: C=CCC(OC(C)=O)[C@@H]1[C@@H](N(Cc2cc3ccccc3o2)C(=O)c2ccc(-c3ccccc3)cc2)c2cc(OCCCO)ccc2N1C(=O)c1ccc(-c2ccccc2)cc1 (some centres not stated)
Reading: 0.18

Compound: CC(C)(C)OC(=O)CC[C@]1(C(=O)NCc2ccccc2)COC(c2ccc(OCCCO)cc2)=N1
Reading: -1.67

Compound: CCOC(=O)C[C@H]1[C@H](OC(=O)c2ccc(C(=O)c3ccccc3)cc2)[C@@H](NC(=O)Cc2ccc(OC)cc2)c2cc(OCCCO)ccc2N1C(=O)Cc1ccc(OC)cc1
Reading: -1.99

Compound: CC(C)C(=C=CC[C@@H](O)c1ccc(CO)o1)CCO
Reading: -1.13

###

molecular target: Follistatin (Homo sapiens) (UniProt P19883); assay: follistatin binders on small-molecule microarrays, primary screen, biochemical, small-molecule microarray, 635/667 nm fluorescence (AID 1132); conditions: FST binding, 635 nm fluorescence, higher = more signal
Sequence (P19883 whole entry, looked up): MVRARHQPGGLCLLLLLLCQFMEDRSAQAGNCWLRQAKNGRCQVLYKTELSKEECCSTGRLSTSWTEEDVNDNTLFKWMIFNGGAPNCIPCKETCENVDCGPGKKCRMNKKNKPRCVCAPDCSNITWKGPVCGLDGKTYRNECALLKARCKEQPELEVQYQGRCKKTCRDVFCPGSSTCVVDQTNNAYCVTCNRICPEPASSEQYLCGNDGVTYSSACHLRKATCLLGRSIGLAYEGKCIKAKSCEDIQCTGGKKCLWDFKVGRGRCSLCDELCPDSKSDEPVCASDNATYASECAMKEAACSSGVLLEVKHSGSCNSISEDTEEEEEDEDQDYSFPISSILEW
# composite z-score listing for each entry below
Measured parameter: composite z-score

Compound: CC(CO)N1C(=O)[C@@H]2C3C(=O)OCCC/C=C\[C@H]3OC23C=CCN(Cc2ccccc2)C(=O)[C@@H]13 (some centres undefined)
Reading: -0.742
//
Compound: Cc1ccc(N2C(=O)c3ccccc3[C@](C)(C(=O)NC3CC3)[C@@H]2c2ccc(CO)cc2)nc1
Reading: 1.22
//
Compound: O=C(NC1CC1)[C@@H]1c2ccccc2C(=O)N(Cc2ccccc2C(F)(F)F)[C@H]1c1ccc(CO)cc1
Reading: 0.928
//
Compound: O=C(NCC(F)(F)F)[C@@H]1c2ccccc2C(=O)N(C2Cc3ccccc3C2)[C@H]1c1ccc(CO)cc1
Reading: -0.871
